# Tested on: Escherichia coli BW25113
# TEST SUMMARY: plate-normalized OD600 growth (mean of duplicates) (OD600 (normalized)); higher = more growth (less inhibition)
# COND: temperature: 37°C; 24 h; 10 µM
Whole data set: some 2,300 compounds, median “plate-normalized OD600 growth (mean of duplicates)” near 0.29, cut for the lowest 2% near 0.22. The full list was thinned out, with the lowest values kept by preference.
Task for the reader: assign each of the following compounds its reported plate-normalized OD600 growth.
Write no unit; give the number alone.

Ask: Could you tell me which plate-normalized OD600 growth is on file for Cc1c(Br)sc2ccc(Cl)cc12 ?
Result: 0.612

Ask: Could you tell me which plate-normalized OD600 growth is on file for CC1COCCN1c1cc(N2CCCCC2C(F)(F)F)[nH]c(=O)c1 (configuration not stated) ?
Result: 0.635

Ask: Could you tell me which plate-normalized OD600 growth is on file for CC(C)(C)n1ncc(N/N=C/c2ccc(Cl)cc2)c(Cl)c1=O ?
Result: 0.605

Ask: Could you tell me which plate-normalized OD600 growth is on file for COc1ccc(/C=N/NC(=O)COc2ccc(Cl)cc2)cc1I ?
Result: 0.62

Ask: Could you tell me which plate-normalized OD600 growth is on file for O=[N+]([O-])c1ccc(-c2ncn[nH]2)cc1 ?
Result: 0.607

Ask: Could you tell me which plate-normalized OD600 growth is on file for CS/C(N)=N\N=C/c1c(F)cccc1Cl ?
Result: 0.652

Ask: Could you tell me which plate-normalized OD600 growth is on file for COc1cc(C=NCc2ccco2)ccc1O ?
Result: 0.622

Ask: Could you tell me which plate-normalized OD600 growth is on file for COc1ccccc1N=C(N)SCc1ccccc1 ?
Result: 0.606

Ask: Could you tell me which plate-normalized OD600 growth is on file for O=[N+]([O-])c1ccc(OCCCOc2ccc([N+](=O)[O-])cc2)cc1 ?
Result: 0.596

Ask: Could you tell me which plate-normalized OD600 growth is on file for NS(=O)(=O)c1ccc(-n2ncc3ccccc3c2=O)cc1 ?
Result: 0.646

Ask: Could you tell me which plate-normalized OD600 growth is on file for O=C1NC(=O)c2cc(-c3ccc([N+](=O)[O-])cc3)ccc21 ?
Result: 0.631

Ask: Could you tell me which plate-normalized OD600 growth is on file for O=C(O)c1cccc(N=Cc2ccc(OCc3ccc(F)cc3)cc2)c1 ?
Result: 0.684
